Catalogue of pIC50 readings, one per entry.
- Tested on: K562
- experiment: The compound evaluated for Cytotoxic activity against multi drug resistant K562 cells (the results were obtained after 48 hr treatment)
- Assay type: functional, cell-based
- run.parameters: Homo sapiens, K562, 48 h
// scale note: pIC50 = -log10(conc_M); give the bare number

// solved cases for pIC50 follow
CC1(C)CCC(C)(C)c2cc(/C=C\c3ccc(N)cc3)ccc21 :: 4.30
CC1(C)CCC(C)(C)c2cc(/C=C\c3cccc(N)c3)ccc21 :: 4.89

Then there is this compound:
Exam item: Query pIC50 for COc1ccc(/C=C\c2ccc3c(c2)C(C)(C)CCC3(C)C)cc1N
Marked response: 4.38

Taken from ChEMBL document CHEMBL1132832.
